assay: in vitro; type: cell-based; details: human
observation.type: CC50 at 5 days

[[record]]
structure_notation = "Cc1cc(C#N)cc(C)c1N1CCC(=O)Nc2cnc(Nc3ccc(C#N)cc3)nc21"
observation_type = "CC50 at 5 days"
measured = "> 50 µM"

[[record]]
structure_notation = "Cc1cc(C#N)cc(C)c1N1CC(=O)Nc2cnc(Nc3ccc(C#N)cc3)nc21"
observation_type = "CC50 at 5 days"
measured = "> 50 µM"


Request: // CC50 at 5 days lookup, key: Cc1cc(C=O)cc(C)c1-n1c(=O)[nH]c2cnc(Nc3ccc(C#N)cc3)nc21
Response: > 50 µM

====

Assay: in vitro
Format: cell-based
Conditions: human
Protocol: The prepared compounds were tested for their anti-HIV-1 activity (Table 1). A viral cytopathic effect assay in MT-4 cells with HIV-1 IIIB virus was used to determine compound potency (EC50, 50% cell viability) in protecting virus induced cell killing. Compound cytotoxicity was assessed in MT-4 cells in the absence of virus (CC50, 50% cytotoxicity). […] ETV contains bromo and amino substitutions on the DAPY core. […]
Below, each of the compounds is paired with its reported CC50 at 120 h value.
// return numeric value only (unit: µM, not printed)

// below: answered compounds
[[record]]
compound = "Cc1cc(CO)cc(C)c1N1CC(=O)Nc2cnc(Nc3ccc(C#N)cc3)nc21"
observation_type = "CC50 at 120 h"
measured = 41.6

[[record]]
compound = "Cc1cc(C=O)cc(C)c1N1CC(=O)Nc2cnc(Nc3ccc(C#N)cc3)nc21"
observation_type = "CC50 at 120 h"
measured = 14.2

[[record]]
compound = "Cc1cc(/C=C/C#N)cc(C)c1-n1c(=O)[nH]c2cnc(Nc3ccc(C#N)cc3)nc21"
observation_type = "CC50 at 120 h"
measured = 23.3


Request: // CC50 at 120 h lookup, key: Cc1cc(C=O)cc(C)c1N1CCC(=O)Nc2cnc(Nc3ccc(C#N)cc3)nc21
Response: 5

Request: // CC50 at 120 h lookup, key: Cc1cc(CO)cc(C)c1-n1c(=O)[nH]c2cnc(Nc3ccc(C#N)cc3)nc21
Response: 39.7

====

Below, each of the compounds is paired with its reported solubility value.
Experiment: Solubility assessment, shake-flask method
Format: physicochemical
Conditions: HCl; shake-flask, pH 1.2; read-out: solubility HCl
Protocol: Compound solubility was measured at Analiza (Cleveland, OH) by the standard shake-flask method at pH 1.2 and 7.4 and quantitated by HPLC-UV.

[[record]]
compound = "Cc1cc(C#N)cc(C)c1N1CCC(=O)Nc2cnc(Nc3ccc(C#N)cc3)nc21"
measured = "87.3 µM"

[[record]]
compound = "Cc1cc(/C=C/C#N)cc(C)c1-n1c(=O)[nH]c2cnc(Nc3ccc(C#N)cc3)nc21"
measured = "61.2 µM"

[[record]]
compound = "Cc1cc(C#N)cc(C)c1Oc1nc(Nc2ccc(C#N)cc2)nc(N)c1Br [ETV, etravirine, reference compound]"
measured = "< 1 µM"


Now for the compound whose solubility we want.
Request: // solubility lookup, key: Cc1cc(C#N)cc(C)c1N1CC(=O)Nc2cnc(Nc3ccc(C#N)cc3)nc21
Response: > 100 µM

====

Experiment: in vitro
Type: cell-based
Details: human
Method: The prepared compounds were tested for their anti-HIV-1 activity (Table 1). A viral cytopathic effect assay in MT-4 cells with HIV-1 IIIB virus was used to determine compound potency (EC50, 50% cell viability) in protecting virus induced cell killing. Compound cytotoxicity was assessed in MT-4 cells in the absence of virus (CC50, 50% cytotoxicity). […] ETV contains bromo and amino substitutions on the DAPY core. […]
Below, each of the compounds is paired with its reported CC50 at 120 h value.
// return numeric value only (unit: µM, not printed)

Request: // CC50 at 120 h lookup, key: Cc1cc(/C=C/C#N)cc(C)c1Nc1ccnc(Nc2ccc(C#N)cc2)n1 [RPV, rilpivirine, reference compound]
Response: 6.5

Request: // CC50 at 120 h lookup, key: Cc1cc(C#N)cc(C)c1-n1c(=O)[nH]c2cnc(Nc3ccc(C#N)cc3)nc21
Response: 43.7

Request: // CC50 at 120 h lookup, key: Cc1cc(/C=C/C#N)cc(C)c1N1CC(=O)Nc2cnc(Nc3ccc(C#N)cc3)nc21
Response: 42.4

====

assay: Solubility assessment, shake-flask method; assay type: physicochemical; conditions: HCl; shake-flask, pH 1.2; read-out: solubility HCl
observation.type: solubility (µM)
// return numeric value only (unit: µM, not printed)

// below: answered compounds
[[record]]
structure_notation = "Cc1cc(C#N)cc(C)c1-n1c(=O)[nH]c2cnc(Nc3ccc(C#N)cc3)nc21"
measured = 73.2

[[record]]
structure_notation = "Cc1cc(/C=C/C#N)cc(C)c1N1CCC(=O)Nc2cnc(Nc3ccc(C#N)cc3)nc21"
measured = 63.3


Now for the compound whose solubility we want.
Request: // solubility lookup, key: Cc1cc(/C=C/C#N)cc(C)c1N1CC(=O)Nc2cnc(Nc3ccc(C#N)cc3)nc21
Response: 6.5

====

assay: Solubility assessment, shake-flask method; format: physicochemical; conditions: supplement CSV
observation.type: HCl sol (µM)
// return numeric value only (unit: µM, not printed)

// below: answered compounds
[[record]]
structure_notation = "Cc1cc(/C=C/C#N)cc(C)c1N1CCC(=O)Nc2cnc(Nc3ccc(C#N)cc3)nc21"
measured = 63.3

[[record]]
structure_notation = "Cc1cc(C#N)cc(C)c1N1CCC(=O)Nc2cnc(Nc3ccc(C#N)cc3)nc21"
measured = 87.3

[[record]]
structure_notation = "Cc1cc(/C=C/C#N)cc(C)c1-n1c(=O)[nH]c2cnc(Nc3ccc(C#N)cc3)nc21"
measured = 61.2

[[record]]
structure_notation = "Cc1cc(C#N)cc(C)c1-n1c(=O)[nH]c2cnc(Nc3ccc(C#N)cc3)nc21"
measured = 73.2


Now for the compound whose HCl sol we want.
Request: // HCl sol lookup, key: Cc1cc(/C=C/C#N)cc(C)c1N1CC(=O)Nc2cnc(Nc3ccc(C#N)cc3)nc21
Response: 6.5

====

Below, each of the compounds is paired with its reported CLint scaled at 1.167 h, 1 µM value.
experiment: Predicted clearance in human liver microsomes; format: in vitro ADME; conditions: pH 7.4, 1 μM compound, read-out: HLM CLint, pred (converted)
// return numeric value only (unit: mL/min/kg, not printed)

[[record]]
compound = "Cc1cc(C#N)cc(C)c1Oc1nc(Nc2ccc(C#N)cc2)nc(N)c1Br [ETV, etravirine, reference compound]"
endpoint_unit = "mL/min/kg"
measured = 4.17

[[record]]
compound = "Cc1cc(/C=C/C#N)cc(C)c1-n1c(=O)[nH]c2cnc(Nc3ccc(C#N)cc3)nc21 [Compound 2]"
endpoint_unit = "mL/min/kg"
measured = 16.7

[[record]]
compound = "Cc1cc(/C=C/C#N)cc(C)c1N1CC(=O)Nc2cnc(Nc3ccc(C#N)cc3)nc21 [Compound 4]"
endpoint_unit = "mL/min/kg"
measured = 16.3

[[record]]
compound = "Cc1cc(/C=C/C#N)cc(C)c1Nc1ccnc(Nc2ccc(C#N)cc2)n1 [RPV, rilpivirine, reference compound]"
endpoint_unit = "mL/min/kg"
measured = 14.3

[[record]]
compound = "Cc1cc(C#N)cc(C)c1N1CCC(=O)Nc2cnc(Nc3ccc(C#N)cc3)nc21 [Compound 5]"
endpoint_unit = "mL/min/kg"
measured = 15.5

[[record]]
compound = "Cc1cc(C#N)cc(C)c1N1CC(=O)Nc2cnc(Nc3ccc(C#N)cc3)nc21 [Compound 3]"
endpoint_unit = "mL/min/kg"
measured = 18.3

[[record]]
compound = "Cc1cc(/C=C/C#N)cc(C)c1N1CCC(=O)Nc2cnc(Nc3ccc(C#N)cc3)nc21 [Compound 6]"
endpoint_unit = "mL/min/kg"
measured = 12


Now for the compound whose CLint scaled at 1.167 h, 1 µM we want.
Request: // CLint scaled at 1.167 h, 1 µM lookup, key: Cc1cc(C#N)cc(C)c1-n1c(=O)[nH]c2cnc(Nc3ccc(C#N)cc3)nc21 [Compound 1]
Response: 8.83

====

Below, each of the compounds is paired with its reported Papp A→B at 120 min value.
assay: MDCK permeability assay (A to B); type: in vitro ADME, Canine; conditions: dog; apparent permeability coefficient, MDCK, A to B, pH 7.4
Report the figure along with its unit, number first.

// below: answered compounds
[[record]]
compound = "Cc1cc(/C=C/C#N)cc(C)c1Nc1ccnc(Nc2ccc(C#N)cc2)n1 [RPV, rilpivirine, reference compound]"
measured = "4.6 ×10⁻⁶ cm/s"

[[record]]
compound = "Cc1cc(C#N)cc(C)c1N1CC(=O)Nc2cnc(Nc3ccc(C#N)cc3)nc21 [Compound 3]"
measured = "4.1 ×10⁻⁶ cm/s"


Request: // Papp A→B at 120 min lookup, key: Cc1cc(C#N)cc(C)c1N1CCC(=O)Nc2cnc(Nc3ccc(C#N)cc3)nc21 [Compound 5]
Response: 3.5 ×10⁻⁶ cm/s

Request: // Papp A→B at 120 min lookup, key: Cc1cc(/C=C/C#N)cc(C)c1N1CCC(=O)Nc2cnc(Nc3ccc(C#N)cc3)nc21 [Compound 6]
Response: 3.1 ×10⁻⁶ cm/s

Request: // Papp A→B at 120 min lookup, key: Cc1cc(C#N)cc(C)c1-n1c(=O)[nH]c2cnc(Nc3ccc(C#N)cc3)nc21 [Compound 1]
Response: 4.9 ×10⁻⁶ cm/s

Request: // Papp A→B at 120 min lookup, key: Cc1cc(/C=C/C#N)cc(C)c1-n1c(=O)[nH]c2cnc(Nc3ccc(C#N)cc3)nc21 [Compound 2]
Response: 5.6 ×10⁻⁶ cm/s

Request: // Papp A→B at 120 min lookup, key: Cc1cc(/C=C/C#N)cc(C)c1N1CC(=O)Nc2cnc(Nc3ccc(C#N)cc3)nc21 [Compound 4]
Response: 4.2 ×10⁻⁶ cm/s

Request: // Papp A→B at 120 min lookup, key: Cc1cc(C#N)cc(C)c1Oc1nc(Nc2ccc(C#N)cc2)nc(N)c1Br [ETV, etravirine, reference compound]
Response: 3.8 ×10⁻⁶ cm/s
